Target: T1, human glucose-dependent insulinotropic peptide receptor (GIP-R) (human, UniProt P48546 22-466)
T1 construct: whole, on cells; Assay used crude plasma membranes of the expressing CHO-S cells; also called human GIP-R; hGIP-R
T1 sequence (looked up): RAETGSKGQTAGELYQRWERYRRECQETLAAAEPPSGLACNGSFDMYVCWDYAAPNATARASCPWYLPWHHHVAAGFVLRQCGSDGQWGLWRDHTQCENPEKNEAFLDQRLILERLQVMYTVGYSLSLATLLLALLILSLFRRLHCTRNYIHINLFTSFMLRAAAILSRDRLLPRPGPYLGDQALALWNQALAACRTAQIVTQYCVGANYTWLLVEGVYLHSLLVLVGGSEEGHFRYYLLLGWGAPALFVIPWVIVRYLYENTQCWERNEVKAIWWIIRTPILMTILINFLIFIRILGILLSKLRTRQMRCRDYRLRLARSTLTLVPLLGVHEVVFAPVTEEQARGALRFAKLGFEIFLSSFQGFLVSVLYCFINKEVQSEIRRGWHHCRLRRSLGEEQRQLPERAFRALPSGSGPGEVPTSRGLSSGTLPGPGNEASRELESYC
Experiment: SPA competition against radioiodinated GIP on CHO-S human GIP-R membranes, Cheng-Prusoff
Non-standard residues stand in square brackets, D forms with d. No end group written: not given here. Aib = CC(C)(N)C(=O)O
measuredMetric: Ki (nM)
Return type: number; implicit unit nM.

Problem: Fill in the blank: the reported Ki of YSQGTFTSDYSKYLD[Aib]KKAQEFVEWLLKTGPSSGAPPKSK-NH2 (also: acetate salt, Synthetic peptide made on Rink amide resin; acetate salt) [compound of SEQ ID NO: 2] is ____.
Solution: 532

// provenance: patent US20160311882A1
